biological target: xanthine oxidase (Homo sapiens, UniProt P47989); assay: Xanthine oxidase inhibitory activity, 96 well plate, kinetic reading at 295 nm; format: biochemical; settings: compound concentration 1 μM
Sequence (P47989 whole entry, species assumed): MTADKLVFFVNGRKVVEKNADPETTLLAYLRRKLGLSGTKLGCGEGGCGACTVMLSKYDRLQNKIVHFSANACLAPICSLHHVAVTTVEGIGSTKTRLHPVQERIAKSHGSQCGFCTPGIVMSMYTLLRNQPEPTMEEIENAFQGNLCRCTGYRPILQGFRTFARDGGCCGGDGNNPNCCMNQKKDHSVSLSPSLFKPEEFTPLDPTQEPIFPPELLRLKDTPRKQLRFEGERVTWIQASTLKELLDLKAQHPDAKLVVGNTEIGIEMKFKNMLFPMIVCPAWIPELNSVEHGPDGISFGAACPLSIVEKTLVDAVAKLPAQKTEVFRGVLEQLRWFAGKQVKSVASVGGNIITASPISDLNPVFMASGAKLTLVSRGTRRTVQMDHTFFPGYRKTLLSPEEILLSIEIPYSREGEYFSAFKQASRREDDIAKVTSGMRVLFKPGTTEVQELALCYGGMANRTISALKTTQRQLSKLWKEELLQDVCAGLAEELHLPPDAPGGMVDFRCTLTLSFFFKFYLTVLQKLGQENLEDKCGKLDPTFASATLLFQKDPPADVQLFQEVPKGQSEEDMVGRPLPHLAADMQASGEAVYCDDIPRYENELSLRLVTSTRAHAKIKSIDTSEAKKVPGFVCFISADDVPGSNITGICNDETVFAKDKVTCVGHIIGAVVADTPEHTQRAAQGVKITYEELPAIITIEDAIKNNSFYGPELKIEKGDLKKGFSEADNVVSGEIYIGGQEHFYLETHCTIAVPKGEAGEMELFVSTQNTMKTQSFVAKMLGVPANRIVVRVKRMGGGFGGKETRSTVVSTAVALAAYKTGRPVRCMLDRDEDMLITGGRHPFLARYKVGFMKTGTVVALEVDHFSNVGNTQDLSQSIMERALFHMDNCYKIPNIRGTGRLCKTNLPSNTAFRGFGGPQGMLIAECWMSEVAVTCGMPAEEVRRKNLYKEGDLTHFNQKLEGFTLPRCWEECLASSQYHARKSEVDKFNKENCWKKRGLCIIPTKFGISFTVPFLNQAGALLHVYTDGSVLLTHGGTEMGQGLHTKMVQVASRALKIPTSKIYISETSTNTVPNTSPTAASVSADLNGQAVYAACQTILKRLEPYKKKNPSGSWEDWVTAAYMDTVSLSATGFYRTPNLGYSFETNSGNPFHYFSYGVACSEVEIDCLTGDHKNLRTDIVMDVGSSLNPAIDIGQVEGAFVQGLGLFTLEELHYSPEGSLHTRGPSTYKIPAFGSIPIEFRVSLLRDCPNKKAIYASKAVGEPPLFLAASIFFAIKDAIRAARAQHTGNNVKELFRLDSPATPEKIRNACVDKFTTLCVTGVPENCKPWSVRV
EXPERIMENTAL_READOUT: PERCENT XANTHINE OXIDASE INHIBITION (%)
Supply the numeric figure in %, leaving out any unit text.

// known answers, use as guide
// map COc1ccc2cc(-c3nnn[nH]3)ccc2c1 to recorded PERCENT XANTHINE OXIDASE INHIBITION (system: xanthine oxidase (Homo sapiens, UniProt P47989))
14

Please do the same for O=C(Nc1ccccc1)c1cccc(-c2nnn[nH]2)c1 as well.
0

Please do the same for CCc1ccc(NC(=O)c2ccc(-c3nnn[nH]3)cc2)cc1 as well.
89

Continuing:
// map O=C(OCc1ccccc1I)c1ccc(-c2nnn[nH]2)cc1 [JQ] to recorded PERCENT XANTHINE OXIDASE INHIBITION (system: xanthine oxidase (Homo sapiens, UniProt P47989))
100

Please do the same for c1cncc(-c2ccc(-c3nnn[nH]3)cc2)c1 as well.
14

Please do the same for N#Cc1cc(-c2nnn[nH]2)ccc1C(=O)Nc1ccncc1 as well.
93

Please do the same for O=C(NCc1ccc2c(c1)OCO2)c1ccc(-c2nnn[nH]2)cc1 as well.
25

====

molecular target: xanthine oxidase (Homo sapiens, UniProt P47989); assay: Xanthine oxidase inhibitory activity, 96 well plate, kinetic reading at 295 nm; type: biochemical; conditions: compound concentration 1 μM
EXPERIMENTAL_READOUT: PERCENT XANTHINE OXIDASE INHIBITION (%)
Supply the numeric figure in %, leaving out any unit text.

// known answers, use as guide
// map C=C(C)C1CC=C(COC(=O)c2ccc(-c3nnn[nH]3)cc2)CC1 (centres unmarked) to recorded PERCENT XANTHINE OXIDASE INHIBITION (system: xanthine oxidase (Homo sapiens, UniProt P47989))
48

Please do the same for O=C(O)c1ccc(NC(=O)c2ccc(-c3nnn[nH]3)cc2)cc1 as well.
97

Please do the same for O=C(OCc1cccnc1)c1ccc(-c2nnn[nH]2)cc1 as well.
98

Please do the same for O=C(OCc1ccco1)c1ccc(-c2nnn[nH]2)cc1 as well.
100

Please do the same for O=C(OC1CCCCC1)c1ccc(-c2nnn[nH]2)cc1 as well.
82

Please do the same for O=C(Nc1ccccc1)c1ccc(-c2nnn[nH]2)cc1Cl as well.
0

Continuing:
// map CCCCCCOC(=O)c1ccc(-c2nnn[nH]2)cc1 to recorded PERCENT XANTHINE OXIDASE INHIBITION (system: xanthine oxidase (Homo sapiens, UniProt P47989))
28

Please do the same for O=C(OC(C1CCCCC1)C1CCCCC1)c1ccc(-c2nnn[nH]2)cc1 as well.
8

====

molecular target: xanthine oxidase (Homo sapiens, UniProt P47989); test: Xanthine oxidase inhibitory activity, 96 well plate, kinetic reading at 295 nm; assay type: biochemical; settings: compound concentration 0.03 μM
EXPERIMENTAL_READOUT: PERCENT XANTHINE OXIDASE INHIBITION
Answer as a quantity: numeral, then unit.

// known answers, use as guide
// map O=C(Nc1cccc(F)c1)c1ccc(-c2nnn[nH]2)cc1 to recorded PERCENT XANTHINE OXIDASE INHIBITION (system: xanthine oxidase (Homo sapiens, UniProt P47989))
32%

Please do the same for CC(C)c1ccc(NC(=O)c2ccc(-c3nnn[nH]3)cc2)cc1 as well.
28%

Continuing:
// map CC(C)COc1ccc(-c2nn[nH]n2)cc1 to recorded PERCENT XANTHINE OXIDASE INHIBITION (system: xanthine oxidase (Homo sapiens, UniProt P47989))
28%

Please do the same for N#Cc1cc(-c2nnn[nH]2)ccc1C(=O)Nc1ccncc1 as well.
33%

Please do the same for CC(C)COc1ccc(-c2nnn[nH]2)cc1C#N as well.
12%

====

target: xanthine oxidase (Homo sapiens, UniProt P47989); test: Xanthine oxidase inhibitory activity, 96 well plate, kinetic reading at 295 nm; format: biochemical; settings: compound concentration 100 μM
EXPERIMENTAL_READOUT: PERCENT XANTHINE OXIDASE INHIBITION (%)
Supply the numeric figure in %, leaving out any unit text.

// known answers, use as guide
Form field: reported PERCENT XANTHINE OXIDASE INHIBITION of CNC(=O)Nc1ccc(-c2nnn[nH]2)cc1 [FS]
10

Please do the same for COc1ccc2cc(-c3nnn[nH]3)ccc2c1 [JR] as well.
85

Please do the same for CCOC(=O)c1ccc(-c2nnn[nH]2)cc1 [FV] as well.
100

Please do the same for c1cncc(-c2ccc(-c3nnn[nH]3)cc2)c1 [HI] as well.
70

Lab note: next compound to report on.
Form field: reported PERCENT XANTHINE OXIDASE INHIBITION of COC(=O)c1ccc(-c2nnn[nH]2)cc1 [FW]
100

====

target: xanthine oxidase (Homo sapiens); experiment: Xanthine oxidase inhibitory activity, 96 well plate, kinetic reading at 295 nm; type: biochemical; settings: compound concentration 10 μM
EXPERIMENTAL_READOUT: PERCENT XANTHINE OXIDASE INHIBITION (%)
Supply the numeric figure in %, leaving out any unit text.

// known answers, use as guide
Form field: reported PERCENT XANTHINE OXIDASE INHIBITION of c1cncc(-c2ccc(-c3nnn[nH]3)cc2)c1
24

Please do the same for Fc1ccccc1-c1nnn[nH]1 as well.
3

Please do the same for CC(C)OC(=O)c1ccc(-c2nnn[nH]2)cc1 as well.
97

Continuing:
Form field: reported PERCENT XANTHINE OXIDASE INHIBITION of Nc1ccc(-c2nnn[nH]2)cc1
3

Please do the same for O=C(OCc1cccc(Cl)c1)c1ccc(-c2nnn[nH]2)cc1 as well.
82

Please do the same for O=C(OCC1CC1)c1ccc(-c2nnn[nH]2)cc1 as well.
97

====

Readings of PERCENT XANTHINE OXIDASE INHIBITION for the listed molecules
target: xanthine oxidase (Homo sapiens, UniProt P47989); experiment: Xanthine oxidase inhibitory activity, 96 well plate, kinetic reading at 295 nm; assay type: biochemical; details: compound concentration 0.05 μM
Supply the numeric figure in %, leaving out any unit text.

// known answers, use as guide
Form field: reported PERCENT XANTHINE OXIDASE INHIBITION of O=C(OCc1cccnc1)c1ccc(-c2nnn[nH]2)cc1
46

Please do the same for O=C(OCCc1cccs1)c1ccc(-c2nnn[nH]2)cc1 as well.
53

Please do the same for CCCOC(=O)c1ccc(-c2nnn[nH]2)cc1 as well.
34

Please do the same for O=C(OCc1ccco1)c1ccc(-c2nnn[nH]2)cc1 as well.
41

Please do the same for O=C(Oc1ccccc1)c1ccc(-c2nnn[nH]2)cc1 as well.
52

Lab note: next molecule to report on.
Form field: reported PERCENT XANTHINE OXIDASE INHIBITION of O=C(OCc1ccc(Cl)cc1)c1ccc(-c2nnn[nH]2)cc1
59

====

biological target: xanthine oxidase (Homo sapiens, UniProt P47989); assay: Xanthine oxidase inhibitory activity, 96 well plate, kinetic reading at 295 nm; format: biochemical; details: compound concentration 0.1 μM
Decision: PERCENT XANTHINE OXIDASE INHIBITION >= 50% yields Yes, all other cases yield No.

Here's what some known entries look like.
Is the recorded value of PERCENT XANTHINE OXIDASE INHIBITION equal to or greater than 50% for this compound? CC(C)COc1ccc(-c2nnn[nH]2)cc1C#N [Compound JE]
No

Please do the same for O=C(O)Cc1ccc(NC(=O)c2ccc(-c3nnn[nH]3)cc2)cc1 [II] as well.
No

Please do the same for COc1cccc(NC(=O)c2ccc(-c3nnn[nH]3)cc2)c1 [IL] as well.
No

Continuing:
Is the recorded value of PERCENT XANTHINE OXIDASE INHIBITION equal to or greater than 50% for this compound? c1ccc(COc2ccc(-c3nnn[nH]3)cc2)cc1 [IV]
No

Please do the same for COc1ccccc1NC(=O)c1ccc(-c2nnn[nH]2)cc1 [IK] as well.
No

Please do the same for O=C(Nc1ccccc1F)c1ccc(-c2nnn[nH]2)cc1 [HY] as well.
No

Please do the same for CC(C)COc1ccc(-c2nnn[nH]2)cc1Br [Compound JC] as well.
No

Please do the same for CC(C)(C)c1ccc(NC(=O)c2ccc(-c3nnn[nH]3)cc2)cc1 [Compound JO] as well.
No

Please do the same for O=C(NCc1ccccc1)c1ccc(-c2nnn[nH]2)cc1 [JA] as well.
No

Please do the same for O=C(Oc1cccc(Br)c1)c1ccc(-c2nnn[nH]2)cc1 [GT] as well.
Yes

Please do the same for N#Cc1cc(-c2nnn[nH]2)ccc1C(=O)Nc1ccccc1 [JF] as well.
No

Please do the same for O=C(Nc1cccc(I)c1)c1ccc(-c2nnn[nH]2)cc1 [HZ] as well.
No

Please do the same for COc1cc(-c2nnn[nH]2)ccc1OCC(C)C [JD] as well.
No

Please do the same for O=C(Nc1ccc(Cl)cc1)c1ccc(-c2nnn[nH]2)cc1 [IX] as well.
Yes

Please do the same for O=C(OCC(C(F)(F)F)C(F)(F)F)c1ccc(-c2nnn[nH]2)cc1 [GS] as well.
Yes

Please do the same for CCCCOc1ccc(NC(=O)c2ccc(-c3nnn[nH]3)cc2)cc1 [IQ] as well.
No

Please do the same for O=C(NC1CCCCC1)c1ccc(-c2nnn[nH]2)cc1 [HA] as well.
No

Please do the same for C#CCCCOC(=O)c1ccc(-c2nnn[nH]2)cc1 [GM] as well.
No

Please do the same for CC(=O)c1cccc(NC(=O)c2ccc(-c3nnn[nH]3)cc2)c1 [Compound IA] as well.
Yes

Please do the same for O=C(Nc1ccccc1)c1ccc(-c2nn[nH]n2)cc1 [Compound IC] as well.
Yes

Please do the same for O=C(Oc1ccccc1)c1ccc(-c2nnn[nH]2)cc1 [GC] as well.
Yes

Please do the same for O=C(OCC12CC3CC(CC(C3)C1)C2)c1ccc(-c2nnn[nH]2)cc1 [GI] as well.
Yes
